Entry source: patent US11548875B2

Parameter: log10(IC50). Scope: all listed entries.
Biological target: ALDH1A2 (Homo sapiens, UniProt O94788)
Assay: Inhibitor screening using purified enzymes: ALDH1A2 activity, retinoic acid production by HPLC (5 uM initial screen, then IC50)
Type: biochemical
Design: histidine-tag (C); made in house; host or cells: bacterial expression (pET28 vector, IPTG induction)
Conditions: purified enzyme
Text: ALDHs were cloned into bacterial expression vector for in vitro enzyme assays and into mammalian expression vectors for cell-based enzyme assays. […] For bacterial expression, an open reading frame of ALDH1A1 and ALDH2 were subcloned into the pETite vector (Lucigen) with a 5′ histidine-tag and that of ALDH1A2 into a pET28 vector (Novagen) with a 3′ histidine-tag. […]
result_type: log10(IC50) (log10 of the value in µM)

smi | result_type | measured
CN(C)c1ccc(C(=O)N2CCN(c3ccc([N+](=O)[O-])c(N4CCCC4)c3)CC2)cc1 | log10(IC50) | 0.76
COc1cccc(NC(=O)c2cn(-c3ccccc3)nc2-c2ccc([N+](=O)[O-])cc2)c1 | log10(IC50) | -0.21
COC(=O)c1ccc(-c2nn(-c3ccccc3)cc2C=O)cc1 | log10(IC50) | -0.70
CS(=O)(=O)c1ccc(-c2nn(-c3cccc(F)c3)cc2C(=O)Nc2ccc(OC(F)(F)F)cc2)cc1 | log10(IC50) | -0.92
Cc1ccc(NC(=O)c2cn(-c3ccccc3)nc2-c2ccc(F)cc2)cc1 | log10(IC50) | 0.48
O=C(Nc1ccc(O)cc1)c1cn(-c2ccccc2)nc1-c1ccc([N+](=O)[O-])cc1 | log10(IC50) | -0.40
CS(=O)(=O)c1ccc(-c2nn(-c3ccccc3)cc2C(=O)Nc2cccc(Cl)c2)cc1 | log10(IC50) | -0.22
O=C(c1ccc[nH]1)N1CCN(c2ccc([N+](=O)[O-])c(N3CCCC3)c2)CC1 | log10(IC50) | -0.58

====

Entries annotated with measured IC50
Target: ALDH1A2 (Homo sapiens, UniProt O94788)
Test: Inhibitor screening using purified enzymes: ALDH1A2 activity, retinoic acid production by HPLC (5 uM initial screen, then IC50)
Type: biochemical
Set-up: histidine-tag (C); made in house; host or cells: bacterial expression (pET28 vector, IPTG induction)
Conditions: purified enzyme

molecule | test_system | IC50, µM
CS(=O)(=O)c1ccc(-c2nn(-c3cccc(F)c3)cc2C(=O)Nc2cccc(C(F)(F)F)c2)cc1 [Compound 266] | ALDH1A2 (Homo sapiens, UniProt O94788) | 0.029
O=C(Nc1ccccc1C(F)(F)F)c1cn(-c2ccccc2)nc1-c1ccc([N+](=O)[O-])cc1 | ALDH1A2 (Homo sapiens, UniProt O94788) | 0.17
CS(=O)(=O)c1ccc(-c2nn(-c3cccc(Cl)c3)cc2C(=O)Nc2cccc(F)c2)cc1 | ALDH1A2 (Homo sapiens, UniProt O94788) | 0.271
Cn1cccc1C(=O)N1CCN(c2ccc(NC(=O)CCl)c(N3CCCC3)c2)CC1 | ALDH1A2 (Homo sapiens, UniProt O94788) | 3.6
CS(=O)(=O)c1ccc(-c2nn(-c3cccc(F)c3)cc2C(=O)Nc2ccc(C#N)cc2)cc1 | ALDH1A2 (Homo sapiens, UniProt O94788) | 0.038
COC(=O)c1cn(-c2ccccc2)nc1-c1ccc([N+](=O)[O-])cc1 | ALDH1A2 (Homo sapiens, UniProt O94788) | 0.217
CS(=O)(=O)c1ccc(-c2nn(-c3cccc(F)c3)cc2C(=O)Nc2cccc(C(F)(F)F)c2)cc1 [Compound 250] | ALDH1A2 (Homo sapiens, UniProt O94788) | 0.291
CCOc1ccsc1C(=O)N1CCN(c2ccc([N+](=O)[O-])c(N3CCCC3)c2)CC1 | ALDH1A2 (Homo sapiens, UniProt O94788) | 0.058
CCc1ccc(C(=O)N2CCN(c3ccc([N+](=O)[O-])c(N4CCCC4)c3)CC2)s1 | ALDH1A2 (Homo sapiens, UniProt O94788) | 0.103

====

This listing pairs compounds with measured EC50.
Target: ALDH1A1 (Homo sapiens, UniProt P00352)
Sequence (P00352 whole entry): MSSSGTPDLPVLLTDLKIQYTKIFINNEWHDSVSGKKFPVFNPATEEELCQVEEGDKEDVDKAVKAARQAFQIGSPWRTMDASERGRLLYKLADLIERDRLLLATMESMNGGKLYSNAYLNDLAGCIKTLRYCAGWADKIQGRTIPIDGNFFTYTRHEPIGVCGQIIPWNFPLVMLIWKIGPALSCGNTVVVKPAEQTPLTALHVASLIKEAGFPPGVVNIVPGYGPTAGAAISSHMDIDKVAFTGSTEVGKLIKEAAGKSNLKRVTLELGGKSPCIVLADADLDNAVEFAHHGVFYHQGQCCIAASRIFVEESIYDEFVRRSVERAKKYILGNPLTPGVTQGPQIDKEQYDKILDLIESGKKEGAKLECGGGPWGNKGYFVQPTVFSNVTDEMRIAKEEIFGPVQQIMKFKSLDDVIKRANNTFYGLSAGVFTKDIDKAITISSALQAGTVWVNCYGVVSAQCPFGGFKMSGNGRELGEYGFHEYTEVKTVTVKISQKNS
Experiment: Cell-based enzyme assay, retinoic acid production in ALDH1A1/H1299 cells
Settings: cell-based

compound | EC50
CS(=O)(=O)c1ccc(-c2nn(-c3cccc(F)c3)cc2C(=O)Nc2cccc(C(F)(F)F)c2)cc1 [Compound 266] | > 20 µM
CS(=O)(=O)c1ccc(-c2nn(-c3ccccc3)cc2C(=O)Nc2cccc(F)c2O)cc1 [Compound 231] | > 20 µM
CS(=O)(=O)c1ccc(-c2nn(-c3ccc(C#N)cc3)cc2C(=O)Nc2cccc(C(F)(F)F)c2)cc1 [Compound 262] | > 20 µM

====

Target: ALDH2 (Homo sapiens, UniProt P05091)
Construct: histidine-tag (N); made in house; host or cells: bacterial expression (pETite vector, IPTG induction)
Sequence (P05091 18-517): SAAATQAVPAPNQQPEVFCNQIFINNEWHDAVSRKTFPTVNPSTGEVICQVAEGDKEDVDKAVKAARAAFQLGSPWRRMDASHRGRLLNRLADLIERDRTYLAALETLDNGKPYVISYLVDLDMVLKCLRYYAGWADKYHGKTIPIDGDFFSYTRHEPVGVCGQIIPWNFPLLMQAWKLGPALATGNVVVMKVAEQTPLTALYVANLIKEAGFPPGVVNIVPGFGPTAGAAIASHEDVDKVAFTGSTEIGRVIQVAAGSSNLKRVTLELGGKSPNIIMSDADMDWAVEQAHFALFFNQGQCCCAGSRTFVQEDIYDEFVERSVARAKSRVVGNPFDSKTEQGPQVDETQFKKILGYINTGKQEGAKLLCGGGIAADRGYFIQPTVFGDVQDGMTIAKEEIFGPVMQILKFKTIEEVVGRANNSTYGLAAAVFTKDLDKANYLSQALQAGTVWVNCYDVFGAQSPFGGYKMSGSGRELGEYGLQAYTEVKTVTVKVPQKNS
Test: Purified ALDH2 assay with propanal, NADH fluorescence
Assay type: biochemical
Settings: purified enzyme
Text: ALDHs were cloned into bacterial expression vector for in vitro enzyme assays and into mammalian expression vectors for cell-based enzyme assays. […] For bacterial expression, an open reading frame of ALDH1A1 and ALDH2 were subcloned into the pETite vector (Lucigen) with a 5′ histidine-tag and that of ALDH1A2 into a pET28 vector (Novagen) with a 3′ histidine-tag. […]
result_type: IC50

smi | test_system | result_type | measured
O=C(c1cccc(Cl)c1)N1CCN(c2ccc([N+](=O)[O-])c(N3CCCC3)c2)CC1 | ALDH2 (Homo sapiens, UniProt P05091) | IC50 | > 100 µM
CS(=O)(=O)c1ccc(-c2nn(-c3cccc(F)c3)cc2C(=O)Nc2ccccc2O)cc1 | ALDH2 (Homo sapiens, UniProt P05091) | IC50 | 62 µM
O=C(c1ccc(Cl)cc1)N1CCN(c2ccc([N+](=O)[O-])c(N3CCCC3)c2)CC1 | ALDH2 (Homo sapiens, UniProt P05091) | IC50 | > 100 µM
Cn1cccc1C(=O)N1CCN(c2ccc(-c3ccc([N+](=O)[O-])cc3)c(N3CCCCC3)c2)CC1 | ALDH2 (Homo sapiens, UniProt P05091) | IC50 | > 100 µM

====

Molecular target: ALDH1A1 (Homo sapiens)
Assay: Cell-based enzyme assay, retinoic acid production in ALDH1A1/H1299 cells
Details: cell-based
Items are presented alongside their recorded EC50.

smi | value_operator | EC50 [µM]
CC(=O)Oc1ccccc1OC(=O)c1cn(-c2cccc(Cl)c2)nc1-c1ccc(S(C)(=O)=O)cc1 | > | 20
O=C(O)c1ccc(-n2cc(C(=O)Nc3ccccc3O)c(-c3ccc(O)cc3)n2)cc1 | > | 20
CNC(=O)c1ccc(-n2cc(C(=O)Nc3cccc(F)c3)c(-c3ccc(S(C)(=O)=O)cc3)n2)cc1 | = | 0.81
CS(=O)(=O)c1ccc(-c2nn(-c3ccc(F)cc3)cc2C(=O)Nc2cccc(C(F)(F)F)c2)cc1 | = | 46
CS(=O)(=O)c1ccc(-c2nn(-c3cccc(C#N)c3)cc2C(=O)Nc2ccc(F)c(F)c2)cc1 | = | 3.56

====

Biological target: ALDH1A2 (Homo sapiens)
Assay: Cell-based enzyme assay, retinoic acid production in ALDH1A2/H1299 cells
Conditions: cell-based
result_type: log10 of EC50 (log10 of the value in µM)

molecule | log10 of EC50
C=C(C(=O)OC)c1ccc(-c2nn(-c3ccc(C#N)cc3)cc2C(=O)Nc2cccc(F)c2)cc1 [Compound 312] | 1.10
COC(=O)c1ccc(-n2cc(C(=O)Nc3cccc(F)c3)c(-c3ccc(S(C)(=O)=O)cc3)n2)cc1 [Compound 273] | -1.35
CS(=O)(=O)c1ccc(-c2nn(-c3ccc(C(N)=O)cc3)cc2C(=O)Nc2cccc(F)c2)cc1 [Compound 283] | -0.40
O=C(O)c1ccc(-n2cc(C(=O)Nc3ccccc3O)c(-c3ccc(O)cc3)n2)cc1 [Compound 307] | -0.60
CS(=O)(=O)c1ccc(-c2nn(-c3ccc(Cl)cc3)cc2C(=O)Nc2ccccc2O)cc1 [Compound 233] | -1.26
CS(=O)(=O)c1ccc(-c2nn(-c3cccc(F)c3)cc2C(=O)Nc2cccc(C(F)(F)F)c2)cc1 [Compound 266] | -0.45
CC(=O)Oc1ccccc1OC(=O)c1cn(-c2cccc(Cl)c2)nc1-c1ccc(S(C)(=O)=O)cc1 [Compound 291] | -1.38
CC(=O)Oc1ccc(-c2nn(-c3ccccc3)cc2C=O)cc1 [Cmpd 35] | -0.02
CS(=O)(=O)c1ccc(-c2nn(-c3ccccc3)cc2C(=O)Nc2cccc(Cl)c2)cc1 [Compound 219] | -0.96

====

Biological target: ALDH1A2 (Homo sapiens, UniProt O94788)
Sequence (O94788 1-518): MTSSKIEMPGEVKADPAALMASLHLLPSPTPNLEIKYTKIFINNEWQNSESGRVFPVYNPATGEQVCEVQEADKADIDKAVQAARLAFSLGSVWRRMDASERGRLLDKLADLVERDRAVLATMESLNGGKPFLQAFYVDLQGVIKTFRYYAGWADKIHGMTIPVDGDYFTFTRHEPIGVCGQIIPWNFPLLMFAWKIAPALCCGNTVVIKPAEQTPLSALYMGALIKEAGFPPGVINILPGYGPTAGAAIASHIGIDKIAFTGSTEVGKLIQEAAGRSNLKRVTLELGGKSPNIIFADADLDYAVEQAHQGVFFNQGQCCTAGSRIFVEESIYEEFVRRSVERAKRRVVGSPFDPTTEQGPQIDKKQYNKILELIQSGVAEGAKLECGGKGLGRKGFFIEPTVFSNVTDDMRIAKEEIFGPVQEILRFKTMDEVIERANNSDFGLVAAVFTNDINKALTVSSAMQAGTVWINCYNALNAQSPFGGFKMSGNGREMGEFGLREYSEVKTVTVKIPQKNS
Assay: Inhibitor screening using purified enzymes: ALDH1A2 activity, retinoic acid production by HPLC (5 uM initial screen, then IC50)
Type: biochemical
Set-up: histidine-tag (C); made in house; host or cells: bacterial expression (pET28 vector, IPTG induction)
Conditions: purified enzyme
result_type: IC50 (µM)

smi | result_type | units_symbol | measured
CCS(=O)(=O)c1ccc(-c2nn(-c3ccccc3)cc2C(=O)Nc2cccc(F)c2)cc1 | IC50 | µM | 0.208
O=C(c1ccc(O)s1)N1CCN(c2ccc([N+](=O)[O-])c(N3CCCC3)c2)CC1 | IC50 | µM | 0.342
CS(=O)(=O)c1ccc(-c2nn(-c3ccccc3)cc2C(=O)Nc2cccc(F)c2O)cc1 | IC50 | µM | 0.323
O=C(Nc1cccc(O)c1)c1cn(-c2ccccc2)nc1-c1ccc([N+](=O)[O-])cc1 | IC50 | µM | 0.779
C=C(C(=O)OC)c1ccc(-c2nn(-c3ccc(C#N)cc3)cc2C(=O)Nc2cccc(F)c2)cc1 | IC50 | µM | 1.2
O=C(Nc1cccc(C(F)(F)F)c1)c1cn(-c2ccccc2)nc1-c1ccc([N+](=O)[O-])cc1 | IC50 | µM | 0.822
Cn1cccc1C(=O)N1CCN(c2ccc(NC(=O)C(Cl)Cl)c(N3CCCC3)c2)CC1 | IC50 | µM | 2.3
CS(=O)(=O)c1ccc(-c2nn(-c3cccc(C#N)c3)cc2C(=O)Nc2ccc(F)c(F)c2)cc1 | IC50 | µM | 0.238
CS(=O)(=O)c1ccc(-c2nn(-c3cccc(F)c3)cc2C(=O)Nc2ccccc2O)cc1 | IC50 | µM | 0.076
